# Test system: SNB-75 CNS
# protocol_notes: NCI-60 one-dose screen, 48 h (100 = growth as untreated, 0 = no growth, -100 = all killed)
# protocol_conditions: 10 µM unless noted
This is part of a sample that, as a whole, favours compounds with a hit. Of some 83,000 tested, about 20% had one in any assay.
Threshold rule: growth greater than or equal to 90% is class 1; below that, class 0.

Solved cases below.
{"chemical_structure": "C#CC(=O)Nc1cccc(Nc2nc3c(c(NCc4ccccc4)n2)CCCC3)c1", "answer_label": "class 0"}
{"chemical_structure": "COc1cc(NCCCN(CC(C)C)C2CCCC2)c2ncccc2c1", "answer_label": "class 0"}
{"chemical_structure": "CC[C@H](CC[C@@H](C)[C@H]1CC[C@H]2[C@@H]3CC=C4C[C@@H](OCCc5nn[nH]n5)CC[C@]4(C)[C@H]3CC[C@]12C)C(C)C", "answer_label": "class 1"}
{"chemical_structure": "CN(C)Cc1c(-c2ccccc2)[nH]c2ccccc12", "answer_label": "class 1"}

Could you now look at the following molecule, please?
Please check the record Nc1c(Cl)cc([N+](=O)[O-])cc1Br and state if its growth is at or above 90%.
class 1
